Source: PubChem BioAssay AID1851

MEASURED_TARGET: Cytochrome P450 2C9 (Homo sapiens) (UniProt P11712)
Sequence (P11712 whole entry, looked up): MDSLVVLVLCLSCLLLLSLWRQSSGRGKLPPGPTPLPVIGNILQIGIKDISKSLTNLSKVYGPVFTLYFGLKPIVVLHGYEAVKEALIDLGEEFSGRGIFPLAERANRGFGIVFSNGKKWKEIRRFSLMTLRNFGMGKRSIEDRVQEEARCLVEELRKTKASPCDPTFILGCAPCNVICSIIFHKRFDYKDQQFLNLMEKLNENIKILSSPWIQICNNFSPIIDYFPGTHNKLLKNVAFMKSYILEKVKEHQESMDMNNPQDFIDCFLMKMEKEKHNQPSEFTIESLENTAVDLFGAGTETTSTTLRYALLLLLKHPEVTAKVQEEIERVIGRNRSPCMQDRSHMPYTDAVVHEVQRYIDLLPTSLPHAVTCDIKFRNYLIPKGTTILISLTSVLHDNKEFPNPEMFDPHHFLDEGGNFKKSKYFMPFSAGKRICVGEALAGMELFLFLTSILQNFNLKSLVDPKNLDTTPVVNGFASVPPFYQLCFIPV
ASSAY: Cytochrome panel assay with activity outcomes
COND: recombinant CYP, pro-luciferin dealkylation, luminescence, p450-cyp2c9; series mostly up to 57.1 µM
Hit rate of the full screen: of about 16,000 compounds, about 4,000 (25%) were called active. Another 26% or so got no clear call; they are omitted. Calls follow the shape of the dose curve; as a rule, active = well fitted curve in the direction sought with a large enough effect; inconclusive = small, poorly fitted or top-dose-only effect, or effect the other way; inactive = no such curve, though single readings can be large or run the other way. A selection follows.
# output must be one of Y = active, N = inactive

Ask | Identify the outcome logged in this assay for the compound shown: CCOC(=O)c1nnn(-c2nonc2N)c1-c1ccc(C)cc1
Reply | Y

Ask | Assay result, entry CCc1ccc(NC(=S)N2CCN(c3cccc(C(F)(F)F)c3)CC2)cc1 — outcome?
Reply | N

Ask | Called result for CCCc1nc2sc3ccccc3c(=O)c2c(=O)n1CCOC
Reply | N

Ask | What is the recorded call for this compound in the test? COc1ccc(C(=O)Nc2nc3c(s2)Cc2cc(OC)ccc2-3)cc1
Reply | Y

Ask | // return assay outcome for COCc1c(C(N)=O)nnn1-c1nonc1N
Reply | N

Ask | Hi, sorry to bother you, what did the test record for COc1cccc(Nc2ncc3nc(C)c(=O)n(CCC#N)c3n2)c1 ?
Reply | N

Ask | Which outcome was assigned to O=C(Nc1nnc(SCc2ccc(Cl)cc2)s1)c1ccco1 in this test?
Reply | Y

Ask | What classification did COCCn1c(=O)c(-c2ccc(Cl)cc2)nc2cnc(N(C)C)nc21 end up with in this test?
Reply | N

Ask | # lookup: test call for COc1ccc(NC(=O)N2CCCC3(CCN(C(=O)c4ccco4)CC3)C2)cc1
Reply | N

====

MEASURED_TARGET: Cytochrome P450 2C9 (Homo sapiens) (UniProt P11712)
ASSAY: Cytochrome panel assay with activity outcomes; as to activity, negative = inhibition: % is scaled to controls: 0 for no effect and ±100 for the full control effect
COND: recombinant CYP, pro-luciferin dealkylation, luminescence, p450-cyp2c9; series mostly up to 57.1 µM
Screen size: about 16,000 compounds; about 4,000 (25%) were called active. Inconclusive results (about 26%) are left out. Only a sample is shown.
For each of the molecules below, state its activity, negative = inhibition.

Ask | Supply reported activity, negative = inhibition belonging to this molecule: Cc1nc(CN2CCCCC2)c(O)c(=O)[nH]1
Reply | 7.96% [at 11.4 µM] (inactive)

Ask | Hello, please tell me recorded activity, negative = inhibition for this one: CO[C@H]1COC(=O)[C@H](C)NC(=O)C/C=C\[C@@H](C)[C@@H](NS(=O)(=O)c2ccc(C)cc2)COC(=O)[C@H](OCc2ccccc2)/C=C\[C@@H]1C
Reply | -22.3% [at 11.4 µM] (inactive)

Ask | # return recorded activity, negative = inhibition for input Clc1ccccc1-c1cc(NCc2ccccc2)ncn1
Reply | 4.07% [at 2.29 µM] (inactive)

Ask | Look up activity, negative = inhibition of NCC(=O)Nc1ccc(Cl)cc1C(=O)c1ccc[nH]1 and report it.
Reply | -20.4% [at 11.4 µM] (inactive)

====

MEASURED_TARGET: Cytochrome P450 2C9 (Homo sapiens)
ASSAY: Cytochrome panel assay with activity outcomes
COND: recombinant CYP, pro-luciferin dealkylation, luminescence, p450-cyp2c9; series mostly up to 57.1 µM
Method: The P450 gene superfamily is involved in the metabolism and clearance of xenobiotics. This assay used various human CYP P450 isozymes to measure the dealkylation of various pro-luciferin substrates to luciferin. The luciferin is then measured by luminescence after the addition of a luciferase detection reagent. […] Inhibitors and some substrates limit the production of luciferin, and decrease measured luminescence. […] 8, Detection, 1 sec, ViewLux luminescent read […]
About 4,000 (25%) of roughly 16,000 compounds were called active. Roughly 26% stayed inconclusive and do not appear here. Calls come from the whole dose curve; as a rule, active = well fitted curve in the direction sought with a large enough effect; inconclusive = small, poorly fitted or top-dose-only effect, or effect the other way; inactive = no such curve, though single readings can be large or run the other way. The list is a sample of the results.
Entry note: the call must match one of label 1 for active, label 0 for inactive

Ask | Field: outcome | Entry: CCCNC(=O)OC[C@@H]1O[C@H](CCO/N=C\c2ccc(C(=O)N3[C@H](c4ccc(C)cc4)[C@@H](C)CC[C@H]3C(=O)OC)cc2)C=C[C@@H]1Oc1ccc(OC)cc1
Reply | label 1

Ask | State the result this test recorded for c1ccc(-n2ncc3c2ncn2cnnc32)cc1 .
Reply | label 0

Ask | Could you kindly confirm the outcome this assay logged for COc1ncc2nc(C)c(=O)n(C3CC3)c2n1 ?
Reply | label 0

Ask | What call does the record list for O=c1cnc2cnc(N3CCOCC3)nc2n1C1CC1 ?
Reply | label 0

Ask | Tell me the assay call for CCc1ccc(Nc2ncccc2C#N)cc1 please.
Reply | label 1

Ask | State the result this test recorded for O=c1[nH]c2cc([N+](=O)[O-])c([N+](=O)[O-])cc2[nH]c1=O .
Reply | label 0

Ask | Which result was noted for this compound in the test: O=C(N/N=C/c1ccc(F)cc1)c1ccc(Br)cc1
Reply | label 0

Ask | What classification did COc1c(/C=N/Nc2nc(N3CCCCC3)nc(N3CCCCC3)n2)cccc1[N+](=O)[O-] end up with in this test?
Reply | label 0

Ask | Please indicate how the test categorized O=C1CCC[C@@H](C(C(=O)OCc2ccccc2)C(=O)OCc2ccccc2)C1 .
Reply | label 1

Ask | Recorded test call requested for O=C(N/N=C/c1ccc2cccc(OCc3ccccc3)c2n1)c1ccc(Br)cc1
Reply | label 1

Ask | In this assay, the call recorded for COc1ccccc1NC(=O)N1CCCC1C(=O)NCc1ccc2c(c1)OCO2 (centres undefined) was what?
Reply | label 0

Ask | State the result this test recorded for Brc1cc2c(cc1/C=N/Nc1nc(N3CCCC3)nc(N3CCOCC3)n1)OCO2 .
Reply | label 1

Ask | Identify the outcome logged in this assay for the compound shown: CCCC(=O)n1nc(-c2cccnc2)nc1N
Reply | label 0

Ask | Tell me the assay call for COC(=O)c1cc(OC)c(OC)cc1NC(=S)N1CCCCC1 please.
Reply | label 0

====

MEASURED_TARGET: Cytochrome P450 2C9 (Homo sapiens) (UniProt P11712)
ASSAY: Cytochrome panel assay with activity outcomes
COND: recombinant CYP, pro-luciferin dealkylation, luminescence, p450-cyp2c9; series mostly up to 57.1 µM
Screen size: about 16,000 compounds; about 4,000 (25%) were called active. About 26% were inconclusive and are not listed. Calls follow the shape of the dose curve; as a rule, active = well fitted curve in the direction sought with a large enough effect; inconclusive = small, poorly fitted or top-dose-only effect, or effect the other way; inactive = no such curve, though single readings can be large or run the other way. Only a sample is shown.
Write down the outcome that applies. Available outcomes: true (active), false (inactive)

Ask | What call does the record list for Cc1ccc(Cn2nnc3c(=O)[nH]c(C4CCN(C(=O)Cc5cccs5)CC4)nc32)cc1 ?
Reply | true

Ask | I would be grateful if you could indicate the recorded call for Cc1ccccc1Cn1nc(C)c(NC(=O)c2sc3ccccc3c2Cl)c1C .
Reply | true

Ask | What classification did O=S(=O)(c1ccccc1)N1CCN(c2cc(-c3ccccc3)nc3ncnn23)CC1 end up with in this test?
Reply | true

Ask | Entry O=C(NCCc1ccccc1)C(=O)NCC1(c2ccccc2)CCCC1 : call = ?
Reply | false

Ask | How did this test come out for CCCN1CCN(CCCNC(=O)Cn2nc(-c3ccc(C)cc3)ccc2=O)CC1 ?
Reply | false

Ask | Any idea what this test logged for COc1cccc(Cn2c(=O)c(-c3cccs3)nc3cnc(OC)nc32)c1 ?
Reply | true

Ask | Assay result, entry Clc1ccc(Cn2c(-c3cccnc3Cl)nc3ccccc32)c(Cl)c1 — outcome?
Reply | true

Ask | Test call, this molecule: Cc1cccc(OCCCC(=O)Nc2ccccc2C(F)(F)F)c1
Reply | false

Ask | What did the test return for CCCCCOc1ccc(C(=O)NCC2(c3ccccc3)CCOCC2)cc1 ?
Reply | true

Ask | Recorded call for COCC(=O)N1CCC[C@@]2(CCN(Cc3ccccc3OC)C2)C1 ?
Reply | false

Ask | # fetch the recorded call for O=C(Nc1cccc2[nH]ncc12)c1ccc(F)cc1 here
Reply | false

Ask | Recorded call for CC[C@](N)(CCC(=O)O)C(=O)O ?
Reply | false

Ask | Write down the call the test reported for this molecule. Item: O=C(Nc1ccc2oc(-c3ccccc3F)nc2c1)c1ccc2c(c1)OCCO2
Reply | true

Ask | Test call, this molecule: COC(=O)c1sccc1NC(=O)c1cc(-c2cc(C)ccc2C)nc2ccccc12
Reply | false

Ask | I'd appreciate the recorded outcome for CC(Oc1ccc(Cl)cc1)C(=O)/C=C/N(C)C (configuration not stated) from this test.
Reply | true

Ask | Check the results log: what was the call for COc1cc(OC)cc(C(=O)Nn2cc(C(=O)N3CCN(C)CC3)c3ccccc3c2=O)c1 ?
Reply | true

Ask | Short answer needed: outcome of this test for C=CCNCCCCOc1c(Cl)cc(C)cc1Br ?
Reply | false

====

MEASURED_TARGET: Cytochrome P450 2C9 (Homo sapiens) (UniProt P11712)
ASSAY: Cytochrome panel assay with activity outcomes
COND: recombinant CYP, pro-luciferin dealkylation, luminescence, p450-cyp2c9; series mostly up to 57.1 µM
Description: The P450 gene superfamily is involved in the metabolism and clearance of xenobiotics. This assay used various human CYP P450 isozymes to measure the dealkylation of various pro-luciferin substrates to luciferin. The luciferin is then measured by luminescence after the addition of a luciferase detection reagent. […] Inhibitors and some substrates limit the production of luciferin, and decrease measured luminescence. […] 8, Detection, 1 sec, ViewLux luminescent read […]
In all, about 16,000 compounds went through this assay and about 4,000 (25%) were called active. Another 26% or so got no clear call; they are omitted. Only a sample is shown.
MEASURED_METRIC: AC50

Recorded AC50, per entry:
CCOC(=O)c1c(C)oc2c1c(C=NC1CCS(=O)(=O)C1)c(O)c1ccccc12 (stereo not drawn)	inactive
CC(=O)Nc1ccc(NC(=O)CSc2nnc(-c3ccccc3)n2Cc2ccc3c(c2)OCO3)cc1	11.2 µM (active)
CC(Oc1ccc(-c2ccccc2)c(F)c1)c1ccn(S(=O)(=O)c2ccc(Cl)cc2)n1 (stereo not drawn)	7.08 µM (active)
CC(Oc1ccccc1)c1ccnn1S(=O)(=O)c1ccccc1 (stereo not drawn)	4.47 µM (active)
COc1ccc2[nH]c(-c3ccccc3)c(CCNC(C)=O)c2c1	15.8 µM (active)

Ask | State its AC50: O=S(=O)(NCc1cn2ccsc2n1)c1ccc(Oc2ccccc2)cc1
Reply | 7.08 µM (active)

Ask | Output AC50 of CN(C)c1nc(NCc2ccccc2)nc(N/N=C/c2ccc(Cl)cc2Cl)n1
Reply | inactive

Ask | Provide measured AC50 value, entry: Cc1ccc(S(=O)(=O)/N=C(/Nc2c(C)n(C)n(-c3ccccc3)c2=O)c2ccc(Cl)cc2)cc1
Reply | 11.2 µM (active)
